Experiment Summary: Viscosity responsiveness: fluorescence emission spectra of probes in glycerol and methanol
Format: physicochemical
Measurement Context: probe 1×10^−5 M
// assign True if Fluorescence ratio in glycerol to methanol falls strictly below 300, else False (ties count as False)

| Compound | Assigned Label |
| --- | --- |
| CN(C)c1ccc(-c2ccc(/C=C(\C#N)C(=O)NCc3ccc(COc4nc(N)nc5[nH]cnc45)cc3)s2)cc1 [Reference Probe 116, reference compound] | True |
| CN(CCOC(=O)NCc1ccc(COc2nc(N)nc3[nH]cnc23)cc1)c1ccc2cc(/C=C(\C#N)c3nc4ccccc4s3)sc2c1 [probe 32] | False |
| CN(CCC(=O)NCc1ccc(COc2nc(N)nc3[nH]cnc23)cc1)c1ccc(/C=C(\C#N)C(=O)OC(C)(C)C)cc1 [probe 13] | False |
| CC1=CC(C)(C)N(CCOC(=O)NCc2ccc(COc3nc(N)nc4[nH]cnc34)cc2)c2ccc(/C=C(\C#N)C(=O)OC(C)(C)C)cc21 [probe 87] | True |
| CN(CCOC(=O)NCc1ccc(COc2nc(N)nc3[nH]cnc23)cc1)c1ccc(-c2ccc(/C=C(\C#N)C(=O)OC(C)(C)C)s2)s1 [probe 77] | True |
| CN(CCO)c1ccc2nc(/C=C(\C#N)C(=O)NCc3ccc(COc4nc(N)nc5[nH]cnc45)cc3)sc2c1 [Reference Probe 115, reference compound] | True |
| N#C/C(=C\c1ccc2c(c1)SCCN2CCOC(=O)NCc1ccc(COc2nc(N)nc3[nH]cnc23)cc1)c1nc2ccccc2o1 [probe 85] | True |
| CN(CCOC(=O)NCc1ccc(COc2nc(N)nc3[nH]cnc23)cc1)c1ccc(-c2ccc(/C=C(\C#N)C(=O)O)s2)cc1 [probe 117] | False |
| N#C/C(=C\c1ccc2c(c1)SCCN2CCOC(=O)NCc1ccc(COc2nc(N)nc3[nH]cnc23)cc1)C(=O)O [probe 103] | False |
| CN(CCOC(=O)NCc1ccc(COc2nccc(N)n2)cc1)c1ccc2nc(/C=C(\C#N)C(=O)OC(C)(C)C)oc2c1 [probe 45] | False |
| CC(C)(C)OC(=O)/C(C#N)=C/c1cc2ccc(N(CCO)CCOC(=O)NCc3ccc(COc4nc(N)nc5[nH]cnc45)cc3)cc2s1 [probe 37] | False |
| CN(CCOC(=O)NCc1ccc(COc2nccc(N)n2)cc1)c1ccc(-c2ccc(/C=C(\C#N)c3nc4ccccc4o3)s2)s1 [probe 81] | True |
| CC(C)(C)OC(=O)/C(C#N)=C/c1cc2ccc(N(CCC#N)CCOC(=O)NCc3ccc(COc4nc(N)nc5[nH]cnc45)cc3)cc2s1 [probe 36] | False |

====

Listed here: items and their measured Quantum yield of probe bound to protein tag.
System Tested: SNAP protein tags (Homo sapiens, UniProt P16455, A127T/A154D/C150Q/C62A/E30R/G131K/G132T/G153L/K125A/K32I/L33F/M134L/N157G/Q115S/Q116H/R128A/R135S/S151G/S152D/S159E)
Sequence (P16455 1-182 with the stated changes): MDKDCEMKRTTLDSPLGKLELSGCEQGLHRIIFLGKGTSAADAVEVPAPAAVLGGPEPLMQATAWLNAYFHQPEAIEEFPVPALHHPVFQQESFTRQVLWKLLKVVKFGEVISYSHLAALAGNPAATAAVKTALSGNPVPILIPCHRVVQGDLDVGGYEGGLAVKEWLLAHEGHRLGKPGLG
Experiment Summary: Fluorescence activation of probe after incubation with corresponding protein tag (SNAP)
Assay type: biochemical
Measurement Context: probe 5 μM, protein tag 10 μM, 37° C., 1 hr
Readout Name: Quantum yield of probe bound to protein tag

| Compound | Meas Value |
| --- | --- |
| CN(CCOC(=O)NCc1ccc(COc2nc(N)nc3[nH]cnc23)cc1)c1ccc2cc(/C=C(\C#N)C(=O)OC(C)(C)C)sc2c1 [probe 40] | 0.41 |
| CN(C)c1ccc2nc(/C=C(\C#N)C(=O)NCc3ccc(COc4nc(N)nc5[nH]cnc45)cc3)sc2c1 [Reference Probe 113, reference compound] | 0.01 |
| CN(C)c1ccc(-c2ccc(/C=C(\C#N)C(=O)NCc3ccc(COc4nc(N)nc5[nH]cnc45)cc3)s2)s1 [Reference Probe 119, reference compound] | 0.01 |
| CN(CCOC(=O)NCc1ccc(COc2nc(N)nc3[nH]cnc23)cc1)c1cc2c(s1)-c1sc(/C=C(/C#N)C(=O)O)cc1C2(C)C | 0.78 |
| CN(CCOC(=O)NCc1ccc(COc2nc(N)nc3[nH]cnc23)cc1)c1cc2c(s1)-c1sc(/C=C(/C#N)c3nc4ccccc4o3)cc1[Si]2(C)C | 0.44 |
| CN(CCO)c1ccc2cc(/C=C(\C#N)C(=O)NCc3ccc(COc4nc(N)nc5[nH]cnc45)cc3)sc2c1 [Reference Probe 112, reference compound] | 0.01 |
